Taken from patent US7563801B2.

assay.notes: Single dose rising study of the encapsulated formulation in healthy human volunteers, pharmacokinetics
Type: in vivo
condition: plasma, oral capsule, single dose 50 mg, read-out: Half Life T ½ (converted)
Method: Another aspect of the present invention is the provision of a pharmaceutical formulation comprising a hydrochloride monohydrate salt of Formula II in a capsule oral dosage form which has a Pharmacokinetic (PK) profile obtained under single dose rising rate study conditions in accordance with Table VIII (average of eight study subjects). Blood samples were collected from each volunteer at predose (hour 0) and 0.25, 0.5, 0.75, 1, 1.5, 2, 3, 4, 6, 8, 12, 16, 24, 36, 48, and 72 hours. […]
parameter: half-life (h)
Response body: numeric value in h, unit text excluded.

The reported value for C[C@@H](OC[C@@]1(c2ccccc2)CC[C@]2(CCC(=O)N2)CN1)c1cc(C(F)(F)F)cc(C(F)(F)F)c1 in terms of half-life is 171

###

assay.notes: Second study: 10, 25 or 50 mg per day for 10 days in healthy volunteers, pharmacokinetics on days 1 and 10
Format: in vivo, human
condition: human, plasma, oral, 50 mg per day, human, 50 mg per day, Day 10, after 10 hour fast; read-out: Cmax (mean maximum plasma concentration)
parameter: Cmax (ng/mL)
Response body: numeric value in ng/mL, unit text excluded.

The reported value for C[C@@H](OC[C@@]1(c2ccccc2)CC[C@]2(CCC(=O)N2)CN1)c1cc(C(F)(F)F)cc(C(F)(F)F)c1 in terms of Cmax is 895

###

assay.notes: Second study: 10, 25 or 50 mg per day for 10 days in healthy volunteers, pharmacokinetics on days 1 and 10
Type: in vivo, human
condition: human, plasma, oral, 50 mg per day, human, 50 mg per day, Day 1; read-out: Tmax (median time of maximum plasma concentration)
parameter: Tmax (h)
Response body: numeric value in h, unit text excluded.

The reported value for C[C@@H](OC[C@@]1(c2ccccc2)CC[C@]2(CCC(=O)N2)CN1)c1cc(C(F)(F)F)cc(C(F)(F)F)c1 in terms of Tmax is 3

###

assay.notes: Second study: 10, 25 or 50 mg per day for 10 days in healthy volunteers, pharmacokinetics on days 1 and 10
Type: in vivo, human
condition: human, plasma, oral, 25 mg per day, human, 25 mg per day, Day 1; read-out: Tmax (median time of maximum plasma concentration)
parameter: Tmax (h)
Response body: numeric value in h, unit text excluded.

The reported value for C[C@@H](OC[C@@]1(c2ccccc2)CC[C@]2(CCC(=O)N2)CN1)c1cc(C(F)(F)F)cc(C(F)(F)F)c1 in terms of Tmax is 2

###

assay.notes: Second study: 10, 25 or 50 mg per day for 10 days in healthy volunteers, pharmacokinetics on days 1 and 10
Assay type: in vivo, human
condition: human, plasma, oral, 50 mg per day, human, 50 mg per day, Day 10; footnote: 0 to 72 hours post administration; read-out: AUC (area under the plasma concentration time curve)
parameter: AUC (ng·h/mL)
Response body: numeric value in ng·h/mL, unit text excluded.

The reported value for C[C@@H](OC[C@@]1(c2ccccc2)CC[C@]2(CCC(=O)N2)CN1)c1cc(C(F)(F)F)cc(C(F)(F)F)c1 in terms of AUC is 17700

###

assay.notes: Second study: 10, 25 or 50 mg per day for 10 days in healthy volunteers, pharmacokinetics on days 1 and 10
Format: in vivo, human
condition: human, plasma, oral, 25 mg per day, human, 25 mg per day, Day 10, after 10 hour fast; read-out: Cmax (mean maximum plasma concentration)
parameter: Cmax
Report the figure along with its unit, number first.

The reported value for C[C@@H](OC[C@@]1(c2ccccc2)CC[C@]2(CCC(=O)N2)CN1)c1cc(C(F)(F)F)cc(C(F)(F)F)c1 in terms of Cmax is 491 ng/mL

###

assay.notes: Single dose rising study of the encapsulated formulation in healthy human volunteers, pharmacokinetics
Type: in vivo
condition: plasma, oral capsule, single dose 25 mg, read-out: Tmax (median time of maximum plasma concentration)
parameter: Tmax (h)
Response body: numeric value in h, unit text excluded.

The reported value for C[C@@H](OC[C@@]1(c2ccccc2)CC[C@]2(CCC(=O)N2)CN1)c1cc(C(F)(F)F)cc(C(F)(F)F)c1 in terms of Tmax is 2.5

###

assay.notes: Single dose rising study of the encapsulated formulation in healthy human volunteers, pharmacokinetics
Type: in vivo
condition: plasma, oral capsule, single dose 100 mg, 0 to 72 hours post administration, read-out: AUC (area under the plasma concentration time curve)
parameter: AUC (ng·h/mL)
Response body: numeric value in ng·h/mL, unit text excluded.

The reported value for C[C@@H](OC[C@@]1(c2ccccc2)CC[C@]2(CCC(=O)N2)CN1)c1cc(C(F)(F)F)cc(C(F)(F)F)c1 in terms of AUC is 74400
